Values from paper PMC3966491

Could you please report measured pIC50 for the items listed next?
test-target: IKBKB (IKK beta) (Homo sapiens, UniProt O14920)
Sequence (O14920 1-756): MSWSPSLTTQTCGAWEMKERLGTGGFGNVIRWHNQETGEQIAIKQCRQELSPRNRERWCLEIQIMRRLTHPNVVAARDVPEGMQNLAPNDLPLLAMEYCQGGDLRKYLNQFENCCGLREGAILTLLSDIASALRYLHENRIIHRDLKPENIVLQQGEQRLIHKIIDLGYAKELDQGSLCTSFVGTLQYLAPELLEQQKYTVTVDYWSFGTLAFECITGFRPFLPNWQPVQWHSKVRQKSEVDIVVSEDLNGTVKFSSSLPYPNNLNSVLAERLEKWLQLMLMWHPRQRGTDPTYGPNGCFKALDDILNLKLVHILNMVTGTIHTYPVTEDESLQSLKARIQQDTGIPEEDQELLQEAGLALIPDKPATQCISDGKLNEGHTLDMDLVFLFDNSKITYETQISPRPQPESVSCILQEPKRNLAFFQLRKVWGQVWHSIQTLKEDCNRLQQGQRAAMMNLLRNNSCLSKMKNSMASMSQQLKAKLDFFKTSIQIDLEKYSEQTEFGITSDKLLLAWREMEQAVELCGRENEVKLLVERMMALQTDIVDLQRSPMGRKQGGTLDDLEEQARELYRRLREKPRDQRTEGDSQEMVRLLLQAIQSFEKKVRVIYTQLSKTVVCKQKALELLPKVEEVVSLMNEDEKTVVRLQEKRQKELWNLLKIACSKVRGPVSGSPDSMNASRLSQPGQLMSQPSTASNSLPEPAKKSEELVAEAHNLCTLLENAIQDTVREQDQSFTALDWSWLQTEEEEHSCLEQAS
A value of pIC50 is the negative decimal logarithm of a concentration given in moles per litre.

Could you share which pIC50 value was measured for `O=C(/C=C/c1nc2cc(F)c(F)cc2[nH]1)c1c(-c2ccc(F)c(F)c2)c2cc(Cl)ccc2[nH]c1=O` ?
4.75

Lookup `O=C(/C=C/c1nc2ccccc2[nH]1)c1c(O)nc2ccc(Cl)cc2c1-c1ccccc1`
5.64

Also `O=C(/C=C/c1nc2cc(F)c(F)cc2[nH]1)c1c(-c2ccc(F)c(F)c2)c2cc(F)ccc2[nH]c1=O` ?
4.79

Also `Cc1ccc2[nH]c(=O)c(C(=O)/C=C/c3nc4ccccc4[nH]3)c(-c3ccccc3)c2c1` ?
5.10

Another molecule to look at: `Cc1ccc2[nH]c(/C=C/C(=O)c3c(-c4ccccc4)c4cc(Cl)ccc4[nH]c3=O)nc2c1`
5.02

Subsequent entry: `O=C(/C=C/c1nc2cc(F)c(F)cc2[nH]1)c1c(-c2ccc(F)cc2)c2cc(Cl)ccc2[nH]c1=O`
4.81

And `O=C(/C=C/c1nc2cc(F)ccc2[nH]1)c1c(-c2ccccc2)c2cc(Cl)ccc2[nH]c1=O` ?
5.72

Entry to check: `O=C(/C=C/c1nc2ccccc2[nH]1)c1c(-c2ccccc2)c2cc(Br)ccc2[nH]c1=O`
5.25

Try the molecule `O=C(/C=C/c1nc2cc(F)c(F)cc2[nH]1)c1c(-c2ccc(F)cc2)c2cc(F)ccc2[nH]c1=O`
4.80

###

test-target: AKT1 (PKB alpha) (Homo sapiens, UniProt P31749)
Sequence (P31749 whole entry): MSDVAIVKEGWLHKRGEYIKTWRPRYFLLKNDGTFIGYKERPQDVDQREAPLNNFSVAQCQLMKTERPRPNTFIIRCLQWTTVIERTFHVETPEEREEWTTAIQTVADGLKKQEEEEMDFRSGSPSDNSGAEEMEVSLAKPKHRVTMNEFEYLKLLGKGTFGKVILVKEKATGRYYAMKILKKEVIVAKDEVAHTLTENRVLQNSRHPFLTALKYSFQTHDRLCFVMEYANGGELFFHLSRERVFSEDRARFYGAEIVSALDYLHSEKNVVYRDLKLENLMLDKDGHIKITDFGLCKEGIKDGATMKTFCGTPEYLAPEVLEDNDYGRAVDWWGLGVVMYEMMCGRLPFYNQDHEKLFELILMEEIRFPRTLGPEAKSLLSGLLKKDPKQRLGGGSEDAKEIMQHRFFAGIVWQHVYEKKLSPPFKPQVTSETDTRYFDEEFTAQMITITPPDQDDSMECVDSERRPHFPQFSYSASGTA
Exam item: assign satisfied to entries whose IC50 is below 10 µM and not satisfied to entries at or above 10 µM. Note that a value of exactly 10 µM receives not satisfied.

Threshold test, IC50 < 10 µM: O=C(/C=C/c1nc2cc(F)c(F)cc2[nH]1)c1c(-c2ccc(F)c(F)c2)c2cc(F)ccc2[nH]c1=O [compound 54]
not satisfied

Moving on to the next molecule: Cc1ccc(-c2c(C(=O)/C=C/c3nc4cc(F)c(F)cc4[nH]3)c(=O)[nH]c3ccc(Cl)cc23)cc1 [compound 50]
not satisfied

Same again, this time with O=C(/C=C/c1nc2ccccc2[nH]1)c1c(O)nc2ccc(Cl)cc2c1-c1ccccc1 [compound 1]
satisfied

And for Cn1c(=O)c(C(=O)/C=C/c2nc3cc(F)ccc3[nH]2)c(-c2ccccc2)c2cc(Cl)ccc21 [compound 46] ?
not satisfied

Also need O=C(/C=C/c1nc2cc(F)c(F)cc2[nH]1)c1c(-c2ccc(F)cc2)c2cc(Cl)ccc2[nH]c1=O [compound 49] , thanks.
not satisfied

Subsequent entry: CCOc1ccc(-c2c(C(=O)/C=C/c3nc4cc(F)c(F)cc4[nH]3)c(=O)[nH]c3ccc(Cl)cc23)cc1 [compound 53]
not satisfied

Now try O=C(/C=C/c1nc2ccccc2[nH]1)c1c(-c2ccccc2)c2ccccc2[nH]c1=O [compound 43] .
satisfied

Same question for O=C(/C=C/c1nc2ccccc2[nH]1)c1c(-c2ccccc2)c2cc(Br)ccc2[nH]c1=O [compound 44] please.
satisfied

Follow-up item: Cc1ccc2[nH]c(/C=C/C(=O)c3c(-c4ccccc4)c4cc(Cl)ccc4[nH]c3=O)nc2c1 [compound 40]
not satisfied

Subsequent entry: Cc1ccc2[nH]c(=O)c(C(=O)/C=C/c3nc4ccccc4[nH]3)c(-c3ccccc3)c2c1 [compound 45]
satisfied

One more molecule: COc1ccc(-c2c(C(=O)/C=C/c3nc4cc(F)c(F)cc4[nH]3)c(=O)[nH]c3ccc(Cl)cc23)cc1 [compound 52]
not satisfied

And O=C(/C=C/c1nc2cc(F)ccc2[nH]1)c1c(-c2ccccc2)c2cc(Cl)ccc2[nH]c1=O [compound 42] ?
satisfied

Then O=C(/C=C/c1nc2cc(F)c(F)cc2[nH]1)c1c(-c2ccc(F)cc2)c2cc(F)ccc2[nH]c1=O [compound 48] ?
not satisfied

Next molecule up: O=C(/C=C/c1nc2cc(F)c(F)cc2[nH]1)c1c(-c2ccc(Cl)cc2)c2cc(Cl)ccc2[nH]c1=O [compound 51]
not satisfied

Another molecule: Cn1c(/C=C/C(=O)c2c(-c3ccccc3)c3cc(Cl)ccc3[nH]c2=O)nc2ccccc21 [compound 39]
not satisfied

Same for O=C(/C=C/c1nc2cc(F)c(F)cc2[nH]1)c1c(-c2ccc(F)c(F)c2)c2cc(Cl)ccc2[nH]c1=O [compound 55]
not satisfied

Moving on to O=C(/C=C/c1nc2cc(Br)ccc2[nH]1)c1c(-c2ccccc2)c2cc(Cl)ccc2[nH]c1=O [compound 41]
not satisfied

###

Observed pIC50, system AKT2 (PKB beta) (Homo sapiens, UniProt P31751).
API: returns pIC50 as number; meaning -log10 of concentration in mol/L.

Which pIC50 is listed for O=C(/C=C/c1nc2ccccc2[nH]1)c1c(O)nc2ccc(Cl)cc2c1-c1ccccc1 [compound 1] ?
5.37

Now give it for O=C(/C=C/c1nc2cc(F)ccc2[nH]1)c1c(-c2ccccc2)c2cc(Cl)ccc2[nH]c1=O [compound 42] too.
5.46

Follow-up entry: O=C(/C=C/c1nc2ccccc2[nH]1)c1c(-c2ccccc2)c2cc(Br)ccc2[nH]c1=O [compound 44]
5.76

Same lookup for Cc1ccc2[nH]c(/C=C/C(=O)c3c(-c4ccccc4)c4cc(Cl)ccc4[nH]c3=O)nc2c1 [compound 40] , please.
5.30

###

Protein target, amino acids: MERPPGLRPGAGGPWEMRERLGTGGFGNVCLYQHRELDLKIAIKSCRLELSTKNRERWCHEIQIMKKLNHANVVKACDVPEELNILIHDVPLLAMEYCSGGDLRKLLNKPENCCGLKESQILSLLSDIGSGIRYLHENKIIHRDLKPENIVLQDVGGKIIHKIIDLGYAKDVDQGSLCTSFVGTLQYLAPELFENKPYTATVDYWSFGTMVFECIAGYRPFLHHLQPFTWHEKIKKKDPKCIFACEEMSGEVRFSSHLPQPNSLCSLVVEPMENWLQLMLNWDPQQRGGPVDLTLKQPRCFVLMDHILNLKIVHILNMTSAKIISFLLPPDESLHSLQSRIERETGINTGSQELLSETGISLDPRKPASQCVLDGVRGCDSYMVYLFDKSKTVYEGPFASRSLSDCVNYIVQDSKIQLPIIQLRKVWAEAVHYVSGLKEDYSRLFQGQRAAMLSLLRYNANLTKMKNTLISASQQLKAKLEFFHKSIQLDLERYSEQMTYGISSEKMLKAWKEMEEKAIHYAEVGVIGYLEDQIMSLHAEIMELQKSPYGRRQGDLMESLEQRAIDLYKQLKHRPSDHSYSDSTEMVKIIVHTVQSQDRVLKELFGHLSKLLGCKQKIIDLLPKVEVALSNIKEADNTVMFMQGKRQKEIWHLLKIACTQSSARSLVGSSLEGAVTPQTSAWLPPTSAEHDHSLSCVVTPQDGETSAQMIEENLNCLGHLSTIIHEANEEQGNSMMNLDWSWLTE
endpoint-label: IC50 (µM)
Unit µM implied. Number only.

Sample O=C(/C=C/c1nc2ccccc2[nH]1)c1c(-c2ccccc2)c2cc(Br)ccc2[nH]c1=O [compound 44] — what was its IC50?
6.02

Also Cc1ccc2[nH]c(=O)c(C(=O)/C=C/c3nc4ccccc4[nH]3)c(-c3ccccc3)c2c1 [compound 45] , if possible.
29.1

O=C(/C=C/c1nc2cc(F)ccc2[nH]1)c1c(-c2ccccc2)c2cc(Cl)ccc2[nH]c1=O [compound 42] , same question.
6.03

Check Cc1ccc2[nH]c(/C=C/C(=O)c3c(-c4ccccc4)c4cc(Cl)ccc4[nH]c3=O)nc2c1 [compound 40] too.
8.03

Query O=C(/C=C/c1nc2cc(F)c(F)cc2[nH]1)c1c(-c2ccc(F)cc2)c2cc(Cl)ccc2[nH]c1=O [compound 49] next
7.12

Same question for O=C(/C=C/c1nc2cc(F)c(F)cc2[nH]1)c1c(-c2ccc(F)c(F)c2)c2cc(Cl)ccc2[nH]c1=O [compound 55] please.
12.1

Do the same for O=C(/C=C/c1nc2cc(F)c(F)cc2[nH]1)c1c(-c2ccc(F)c(F)c2)c2cc(F)ccc2[nH]c1=O [compound 54] please
7.2

Next: O=C(/C=C/c1nc2ccccc2[nH]1)c1c(O)nc2ccc(Cl)cc2c1-c1ccccc1 [compound 1]
3.85

Now try O=C(/C=C/c1nc2cc(F)c(F)cc2[nH]1)c1c(-c2ccc(F)cc2)c2cc(F)ccc2[nH]c1=O [compound 48] .
13.1
